B1: TMEM192 (parent)
chain: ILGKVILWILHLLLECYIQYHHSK

Variants of: B1
Assay info: protein stability index of a GFP-peptide fusion (GPS, HEK-293T) (PSI 1-6); higher = more stable;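 also: lentivirally expressed fusions sorted by FACS into six bins by GFP to DsRed ratio, PSI derived from sequencing read proportions per bin multiplied by bin number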
Test conditions: c terminus: a fixed tail appended
// FALSE strictly below 3 in protein stability index; TRUE otherwise

- ILHKVILWILHLLLECYIQYHHSK [G3H]: FALSE
- ILGKVILFILHLLLECYIQYHHSK [W8F]: TRUE
- LLGKVILWILHLLLECYIQYHHSK [I1L]: TRUE
- ILGKVILWILHLLLECYIQYTHSK [H21T]: FALSE
- ILGKVIQWILHLLLECYIQYHHSK [L7Q]: TRUE
- ILGKVILWISHLLLECYIQYHHSK [L10S]: FALSE
- ILGKVILWILHLLLECYIQYHHMK [S23M]: FALSE
- ILGKVILWILHLLLECYIQYHHWK [S23W]: TRUE
- ILGKVILWILHLLLECYIQYHHSA [K24A]: FALSE
- ILGKVILWILHLLLYCYIQYHHSK [E15Y]: FALSE
- ILGKVILWILHLLLECYIQLHHSK [Y20L]: TRUE
- ILGKVILWILHLLLECYIQEHHSK [Y20E]: TRUE
- ILGKVILWILHLLLICYIQYHHSK [E15I]: TRUE
- ILGKVWLWILHLLLECYIQYHHSK [I6W]: FALSE
- ILGKVILWILHLLLEMYIQYHHSK [C16M]: TRUE
- ILGKVIVWILHLLLECYIQYHHSK [L7V]: FALSE
- ILGKVILWILTLLLECYIQYHHSK [H11T]: FALSE
- ILGKVILWILSLLLECYIQYHHSK [H11S]: FALSE
- ILGKVILWILHLLLECYIQYHHST [K24T]: TRUE
- IEGKVILWILHLLLECYIQYHHSK [L2E]: FALSE
